B1: CPEB3 Ribozyme (parent)
chain: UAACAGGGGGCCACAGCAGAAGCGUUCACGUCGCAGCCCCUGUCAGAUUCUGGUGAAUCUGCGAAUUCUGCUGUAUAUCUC

Variants of: B1
testName: self-cleavage, relative activity (ratio to wild type); higher = more cleavage; in vitro, sequencing
Parameter self-cleavage: see the listing below.
Reply briefly: the number, and no unit.

Solved cases (3 shown):
{"changes": "U58C U69G", "quantitativeResult": 0.15}
{"changes": "U76A", "quantitativeResult": 1.14}
{"changes": "C40U A45U", "quantitativeResult": 0.15}

self-cleavage recorded for this variant, C23A A28U , is 0.14

self-cleavage recorded for this variant, G10C C71A , is 0.12

self-cleavage recorded for this variant, C29U A35U , is 0.22

self-cleavage recorded for this variant, G10C U25C , is 0.07

self-cleavage recorded for this variant, G10A C17A , is 0.23

self-cleavage recorded for this variant, G53A A75C , is 1.18

self-cleavage recorded for this variant, U43C U48A , is 0.29

self-cleavage recorded for this variant, G53A G70A , is 0.62

self-cleavage recorded for this variant, U69A A77U , is 0.75

self-cleavage recorded for this variant, G9A A64C , is 0.06

self-cleavage recorded for this variant, A57G U74G , is 1.23

self-cleavage recorded for this variant, U51A U69A , is 0.64

self-cleavage recorded for this variant, U1A G7A , is 0.1

self-cleavage recorded for this variant, A5C A57C , is 0.52

self-cleavage recorded for this variant, C4G U41C , is 1.1

self-cleavage recorded for this variant, U69C C81A , is 1.16

self-cleavage recorded for this variant, A21G U58C , is 0.31

self-cleavage recorded for this variant, A45U C68U , is 0.53

self-cleavage recorded for this variant, C34G U72G , is 0.15

self-cleavage recorded for this variant, A21G C32A , is 0.23

self-cleavage recorded for this variant, A21U U60G , is 0.17
